The origin of these recorded values is patent US20220347175A1.

- Subject Of Test: human Nav1.1 (Homo sapiens)
- Construct: host or cells: HEK293
- Assay Info: Amplification of Nav1.1-derived voltage-dependent sodium current (Nav1.1 current), cell line stably expressing human Nav1.1, automated patch clamp
- Type: cell-based
- Measurement Conditions: 10 μmol/L compound; change of the area under the curve of Nav1.1 current (Test Result 1); read-out: Nav1.1 current amplification rate (%)
Reported Metric: activation at 10 µM (%)

Field: example entries. Status: answers known.
Molecule | Unit Symbol | Value Measured
Cc1cc(=O)n(CC(=O)Nc2ccc3ocnc3c2)nc1N1CCC2(CCCC2)C1 | % | 252
N#Cc1cc(NC(=O)Cn2nc(C3=CCC(F)(F)CC3)ccc2=O)ccn1 | % | 56
O=C(Cn1nc(N2CCCC3(CCC3)C2)ccc1=O)Nc1ccc2scnc2c1 | % | 285
Cc1cc(=O)n(CC(=O)Nc2ccc3ocnc3c2)nc1N1CCC2(CCC2)C1 | % | 235
O=C(Cn1nc(N2CCC3(CCCC3)C2)ccc1=O)Nc1ccc2ocnc2c1 | % | 173

1 = CC1(C)CCN(c2ccc(=O)n(CC(=O)N3CCc4c(N5CCOCC5)cccc43)n2)CC1
2 = Cc1cc(N2CCC3(CCC3)C2)nn(CC(=O)N2CCc3c(N4CCN(C)CC4)cccc32)c1=O
3 = O=C(Cn1nc(N2CC3C(C2)C3(F)F)ccc1=O)Nc1ccc2ocnc2c1 (centres unmarked)
Sort (3 molecules) by activation at 10 µM: min first. Would you mind listing the labels in the order requested?
3, 2, 1
(3: 6%, 2: 146%, 1: 281%)

1 = CC1CC=C(c2ccc(=O)n(CC(=O)Nc3ccn4ccnc4c3)n2)CC1 (centres unmarked)
2 = CC1CCN(c2ccc(=O)n(CC(=O)Nc3ccn4c(Br)cnc4c3)n2)CC1
3 = Cc1cc2cc(NC(=O)Cn3nc(N4CCC(C)CC4)ccc3=O)ccc2o1
Sort (3 molecules) by activation at 10 µM: min first. Would you mind listing the labels in the order requested?
3, 2, 1

I = Cc1cc(C2=CCC(C)(C)CC2)nn(CC(=O)N2CCN(c3cccnc3)CC2)c1=O
II = Cc1cc(N2CCC(C)CC2)nn(CC(=O)Nc2ccc3ocnc3c2)c1=O
III = Cc1c(N2CCC3(CCCC3)C2)nn(CC(=O)Nc2ccn3ccnc3c2)c(=O)c1C
Hey, quick one: sort these by activation at 10 µM, largest value first please. Would you mind listing the labels in the order requested?
I, III, II
(I: 262%, III: 150%, II: 103%)

====

- Subject Of Test: human Nav1.5 (Homo sapiens, UniProt Q14524)
- Construct: expressed in transfected cells; host or cells: CHO-K1 (T-REx System, ThermoFisher Scientific)
- Sequence (Q14524 1-2015 isoform Q14524-2): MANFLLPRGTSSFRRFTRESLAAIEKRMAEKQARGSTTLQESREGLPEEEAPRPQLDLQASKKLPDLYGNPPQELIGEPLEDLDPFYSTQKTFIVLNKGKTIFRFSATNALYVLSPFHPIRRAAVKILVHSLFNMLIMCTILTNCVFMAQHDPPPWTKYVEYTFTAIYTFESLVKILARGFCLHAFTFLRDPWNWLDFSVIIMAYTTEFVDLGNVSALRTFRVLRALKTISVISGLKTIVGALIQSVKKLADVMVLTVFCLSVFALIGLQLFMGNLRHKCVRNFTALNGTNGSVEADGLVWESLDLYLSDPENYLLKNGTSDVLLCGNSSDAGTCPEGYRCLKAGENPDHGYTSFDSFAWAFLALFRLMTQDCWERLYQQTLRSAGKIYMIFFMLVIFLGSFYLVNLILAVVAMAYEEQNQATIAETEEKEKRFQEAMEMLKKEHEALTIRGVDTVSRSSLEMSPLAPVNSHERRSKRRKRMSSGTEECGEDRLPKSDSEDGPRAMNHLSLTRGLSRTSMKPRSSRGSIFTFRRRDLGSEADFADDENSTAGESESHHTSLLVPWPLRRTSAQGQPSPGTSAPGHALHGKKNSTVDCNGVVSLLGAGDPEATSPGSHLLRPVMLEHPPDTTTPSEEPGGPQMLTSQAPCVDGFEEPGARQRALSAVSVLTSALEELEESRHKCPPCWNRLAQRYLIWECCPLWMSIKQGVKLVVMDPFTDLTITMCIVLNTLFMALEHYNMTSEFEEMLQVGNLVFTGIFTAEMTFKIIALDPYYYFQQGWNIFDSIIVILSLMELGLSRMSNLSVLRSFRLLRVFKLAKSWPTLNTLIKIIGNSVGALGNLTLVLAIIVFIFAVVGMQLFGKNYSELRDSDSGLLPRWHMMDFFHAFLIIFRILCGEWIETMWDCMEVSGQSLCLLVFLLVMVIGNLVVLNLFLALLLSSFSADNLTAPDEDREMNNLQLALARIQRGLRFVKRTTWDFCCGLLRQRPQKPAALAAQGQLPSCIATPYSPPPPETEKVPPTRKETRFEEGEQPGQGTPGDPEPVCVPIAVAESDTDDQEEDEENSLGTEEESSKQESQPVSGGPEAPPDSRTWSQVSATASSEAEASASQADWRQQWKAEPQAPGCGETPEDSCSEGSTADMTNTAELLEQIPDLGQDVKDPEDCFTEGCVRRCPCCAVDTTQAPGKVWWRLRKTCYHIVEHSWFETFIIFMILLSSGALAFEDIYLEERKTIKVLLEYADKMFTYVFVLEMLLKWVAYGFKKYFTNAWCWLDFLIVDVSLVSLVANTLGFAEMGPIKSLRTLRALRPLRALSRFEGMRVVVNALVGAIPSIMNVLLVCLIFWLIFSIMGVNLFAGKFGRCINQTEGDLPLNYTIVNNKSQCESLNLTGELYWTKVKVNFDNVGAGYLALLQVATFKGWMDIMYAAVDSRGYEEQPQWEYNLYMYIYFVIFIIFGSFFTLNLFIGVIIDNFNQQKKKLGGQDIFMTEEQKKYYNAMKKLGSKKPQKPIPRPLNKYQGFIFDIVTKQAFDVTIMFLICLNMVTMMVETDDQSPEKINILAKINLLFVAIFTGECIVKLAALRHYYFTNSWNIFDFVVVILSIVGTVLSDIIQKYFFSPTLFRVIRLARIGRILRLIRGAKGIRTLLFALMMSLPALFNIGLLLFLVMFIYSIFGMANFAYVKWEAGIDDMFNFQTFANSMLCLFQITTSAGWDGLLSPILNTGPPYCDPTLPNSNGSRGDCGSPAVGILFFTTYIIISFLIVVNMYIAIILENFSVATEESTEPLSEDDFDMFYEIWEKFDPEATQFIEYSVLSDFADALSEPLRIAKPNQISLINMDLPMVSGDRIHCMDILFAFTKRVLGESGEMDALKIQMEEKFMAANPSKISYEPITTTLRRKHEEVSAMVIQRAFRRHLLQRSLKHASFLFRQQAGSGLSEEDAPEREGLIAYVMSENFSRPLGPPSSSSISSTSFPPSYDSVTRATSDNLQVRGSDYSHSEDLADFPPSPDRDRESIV
- Assay Info: Amplification of Nav1.5-derived voltage-dependent sodium current (Nav1.5 current), cell line stably expressing human Nav1.5, automated patch clamp
- Format: cell-based
- Measurement Conditions: compound 1 μmol/L; CHO-K1 stably expressing human Nav1.5; read-out: Nav1.5 current amplification rate (%)
Consider the following compounds and their measured activation at 1 µM readings.
Answer with a number only, understood to be in %.

Field: example entries. Status: answers known.
Compound | Value Measured
O=C(Cn1nc(C2=CCCCC2)ccc1=O)N1CCc2c(C3=CCOCC3)cccc21 | 24
O=C(Cn1nc(C2=CCCC2)ccc1=O)N1CCc2c(-c3cccnc3)cccc21 | 5
CC1CCN(c2ccc(=O)n(CC(=O)N3CCc4c(N5CCOCC5)cccc43)n2)CC1 | 9

Turning now to a further record.
I have this compound here, CC1CC=C(c2ccc(=O)n(CC(=O)Nc3ccc4ocnc4c3)n2)CC1 (centres unmarked) , and I need its recorded activation at 1 µM.
8
